Values compiled from patent US7122541B2.

Experiment: Lactate dehydrogenase (LDH) release cytotoxicity assay
Assay type: cell-based, human
Details: human, LS-180 cells; 50 μm, 24 hours; read-out: percent cytotoxicity (LDH release)
observable: cytotoxicity at 24 h, 50 µM (%)
A number alone suffices; assume %.

Q) Complete the entry with cytotoxicity at 24 h, 50 µM for `O=S1(=O)CCN(CN2CCS(=O)(=O)NC2)CN1`
A) -0.07
